The following binders are listed with their measured binding signal values.
biological target: dAsCas12a K548R (Acidaminococcus sp., UniProt U2UMQ6 1-1307, K548R;D908A;E993A;D1235A); assay: Spec-seq (native PAGE EMSA with sequencing of bound and unbound); 25 mM Tris-HCl pH 7.4, 150 mM KCl, 5 mM MgCl2, 10% glycerol, 1 mM DTT, 40 ng/uL salmon sperm DNA; 400 nM Cas12a, 480 nM crRNA, 50 nM library, 37 C 1 h; native PAGE at room temperature; high values mean tight binding; conditions: protein: recombinant
API: value field is a number in lnKA; no unit string.

binder | measure | test-value
TCTC (dsDNA) DNA 1: GCTATCTAGTGCTCAGTACGCACTGTCTCAGGAAACTTCTGGCAGGACCAGGTCATGAGATCGGAAGAGCACACGTCTGAACTCCAGTCA DNA 2: TGACTGGAGTTCAGACGTGTGCTCTTCCGATCTCATGACCTGGTCCTGCCAGAAGTTTCCTGAGACAGTGCGTACTGAGCACTAGATAGC RNA: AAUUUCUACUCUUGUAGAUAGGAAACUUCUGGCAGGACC | binding signal | -8.65

Kindly review the next binder as well.
Sure, the documented binding signal for TATG (dsDNA) DNA 1: GCTATCTAGTGCTCAGTACGCACTGTATGAGGAAACTTCTGGCAGGACCAGGTCATGAGATCGGAAGAGCACACGTCTGAACTCCAGTCA DNA 2: TGACTGGAGTTCAGACGTGTGCTCTTCCGATCTCATGACCTGGTCCTGCCAGAAGTTTCCTCATACAGTGCGTACTGAGCACTAGATAGC RNA: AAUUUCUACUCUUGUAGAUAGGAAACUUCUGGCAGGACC is -7.66
